Experiment: Kinetic solubility in aqueous media
Assay type: physicochemical
Assay setup: aqueous buffer, kinetic from dmso stock; phosphate citrate buffer pH 7.4, turbidity by nephelometer; read-out: Solubility Score
Assay readout: solubility

Some molecules with recorded solubility:
O=C(NO)c1cnc(NC2CCCN(S(=O)(=O)c3ccc(-c4ccccc4)cc3)CC2)nc1 (stereo not drawn); < 75.8 µM
O=C(NO)c1ccc(NC2CCN(S(=O)(=O)c3ccc4ccccc4c3)CC2)nc1; > 454 µM
O=C(NO)c1ccc(NC2CCCN(S(=O)(=O)c3ccc(-c4ccccc4)cc3)CC2)nc1 (stereo not drawn); < 75.8 µM
O=C(NO)c1ccc(NC2CCCN(S(=O)(=O)c3ccc4c(c3)CCCC4)CC2)nc1 (stereo not drawn); 75.8 to 454 µM
O=C(NO)c1cnc(NCC2CCN(S(=O)(=O)c3ccc4ccccc4c3)CC2)nc1; < 75.8 µM

Okay, next one:
// returns reported solubility for input O=C(NO)c1cnc(NCC2CCCN(S(=O)(=O)c3ccc4ccccc4c3)C2)nc1 (stereo not drawn)
< 75.8 µM

* * *

Listed compounds paired with reported melting point
Please state the figure in °C; there is no need to write the unit.

O=C(NO)c1ccc(NC2CCCN(S(=O)(=O)c3ccc(-c4ccccc4)cc3)CC2)nc1 (stereo not drawn) (hydrate or solvate); 115
O=C(NO)c1ccc(NC2CCN(S(=O)(=O)c3ccc4ccccc4c3)CC2)nc1; 160
O=C(NO)c1cnc(NC2CCN(S(=O)(=O)c3ccc4ccccc4c3)CC2)nc1; 256
O=C(NO)c1cnc(NCC2CCN(S(=O)(=O)c3ccc4ccccc4c3)CC2)nc1; 240
O=C(NO)c1ccc(NC2CCCN(S(=O)(=O)c3ccc4c(c3)CCCC4)CC2)nc1 (stereo not drawn) (hydrate or solvate); 115
O=C(NO)c1cnc(NCC2CN(S(=O)(=O)c3ccc4ccccc4c3)CCO2)nc1 (stereo not drawn); 226
O=C(NO)c1cnc(NC2CCCN(S(=O)(=O)c3ccc(-c4ccccc4)cc3)CC2)nc1 (stereo not drawn); 227
O=C(NO)c1cnc(NC2CCCN(S(=O)(=O)c3ccc4ccccc4c3)CC2)nc1 (stereo not drawn); 140

Then this compound:
Could you share which melting point value was measured for O=C(NO)c1cnc(NCC2CCCN(S(=O)(=O)c3ccc4ccccc4c3)C2)nc1 (stereo not drawn) ?
137

* * *

The entries below are paired with their reported solubility.
Experiment: Kinetic solubility in aqueous media
Assay type: physicochemical
Assay setup: aqueous buffer, kinetic from dmso stock; phosphate citrate buffer pH 7.4, turbidity by nephelometer; read-out: Solubility Score

Using the record for O=C(NO)c1cnc(NCC2CN(S(=O)(=O)c3ccc4ccccc4c3)CCO2)nc1 (stereo not drawn) , report its solubility.
> 454 µM

Please report the recorded solubility for `O=C(NO)c1cnc(NC2CCN(S(=O)(=O)c3ccc4ccccc4c3)CC2)nc1` .
> 454 µM

// query solubility value for entry O=C(NO)c1cnc(NC2CCCN(S(=O)(=O)c3ccc4ccccc4c3)CC2)nc1 (stereo not drawn)
75.8 to 454 µM
